# target.desc: GST-tagged human ROCK2 catalytic domain 1-553 (Homo sapiens (Human), UniProt O75116)
# Sequence (O75116 1-553): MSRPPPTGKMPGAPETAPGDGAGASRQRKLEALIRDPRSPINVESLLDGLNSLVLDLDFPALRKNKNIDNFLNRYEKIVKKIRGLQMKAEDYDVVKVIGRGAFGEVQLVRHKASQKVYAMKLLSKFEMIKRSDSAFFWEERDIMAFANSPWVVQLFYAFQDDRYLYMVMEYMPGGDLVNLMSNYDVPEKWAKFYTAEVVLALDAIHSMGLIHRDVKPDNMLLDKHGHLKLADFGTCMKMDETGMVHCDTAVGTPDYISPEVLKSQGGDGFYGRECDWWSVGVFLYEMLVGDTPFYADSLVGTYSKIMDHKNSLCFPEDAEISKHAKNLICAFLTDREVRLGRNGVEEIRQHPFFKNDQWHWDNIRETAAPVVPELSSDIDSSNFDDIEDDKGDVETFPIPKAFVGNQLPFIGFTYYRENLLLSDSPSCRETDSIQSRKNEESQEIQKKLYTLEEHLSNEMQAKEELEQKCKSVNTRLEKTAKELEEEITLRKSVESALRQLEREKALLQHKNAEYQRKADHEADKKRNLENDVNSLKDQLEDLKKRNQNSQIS
# assay.details: Inhibition of Rho-associated protein kinase isoform 2 (LANCE Ultra ULight-CREBtide FRET kinase assay)
# Type: biochemical
# study.conditions: selectivity ROCK2 vs ROCK1
Let's look at some compounds and their measured Selectivity for ROCK2 over ROCK1 (IC50 ROCK1 / IC50 ROCK2).

# Selectivity for ROCK2 over ROCK1 (IC50 ROCK1 / IC50 ROCK2) of CC(C)(C)C(=O)Nc1cccc(-c2nnc(Nc3ccc4[nH]ncc4c3Cl)s2)c1 [Example 35O] = >5

# Selectivity for ROCK2 over ROCK1 (IC50 ROCK1 / IC50 ROCK2) of C[C@H](N)C(=O)Nc1cccc(-c2nnc(Nc3ccc4[nH]ncc4c3Cl)s2)c1 [Example 35AA] = >5

# Selectivity for ROCK2 over ROCK1 (IC50 ROCK1 / IC50 ROCK2) of CC(=O)Nc1cccc(-c2nnc(Nc3ccc4[nH]ncc4c3Cl)s2)c1 [Example 35Y] = >5

# Selectivity for ROCK2 over ROCK1 (IC50 ROCK1 / IC50 ROCK2) of CC(=O)c1cc(-c2nnc(Nc3ccc4[nH]ncc4c3Cl)s2)ccn1 [Example 35CV] = >50

# Selectivity for ROCK2 over ROCK1 (IC50 ROCK1 / IC50 ROCK2) of O=C(Cc1ccccn1)Nc1cccc(-c2nnc(Nc3ccc4[nH]ncc4c3Cl)s2)c1 [Example 35BM] = >100

# Selectivity for ROCK2 over ROCK1 (IC50 ROCK1 / IC50 ROCK2) of Cn1cc(C(=O)Nc2cncc(-c3nnc(Nc4ccc5[nH]ncc5c4)s3)c2)cn1.O=C(O)C(F)(F)F [Example 35CA] = <5

# Selectivity for ROCK2 over ROCK1 (IC50 ROCK1 / IC50 ROCK2) of CC(=O)Nc1cc(-c2nnc(Nc3ccc4[nH]ncc4c3Cl)s2)ccc1CN(C)C [Example 48L] = >5

# Selectivity for ROCK2 over ROCK1 (IC50 ROCK1 / IC50 ROCK2) of O=C(Nc1cc(-c2nnc(Nc3ccc4[nH]ncc4c3Cl)s2)ccn1)c1ccc(F)cc1.O=C(O)C(F)(F)F [Example 35B] = <5

# Selectivity for ROCK2 over ROCK1 (IC50 ROCK1 / IC50 ROCK2) of NC1CCN(C(=O)Nc2cccc(-c3nnc(Nc4ccc5[nH]ncc5c4)s3)c2)C1 (stereo not shown) = <5

# Selectivity for ROCK2 over ROCK1 (IC50 ROCK1 / IC50 ROCK2) of NCCn1cc(C(=O)Nc2cccc(-c3nnc(Nc4ccc5[nH]ncc5c4)s3)c2)cn1 [Example 35CE] = >5
